target-of-assay: Kallikrein-7 (Homo sapiens, UniProt P49862)
Sequence (P49862 whole entry, the tested form may be a part): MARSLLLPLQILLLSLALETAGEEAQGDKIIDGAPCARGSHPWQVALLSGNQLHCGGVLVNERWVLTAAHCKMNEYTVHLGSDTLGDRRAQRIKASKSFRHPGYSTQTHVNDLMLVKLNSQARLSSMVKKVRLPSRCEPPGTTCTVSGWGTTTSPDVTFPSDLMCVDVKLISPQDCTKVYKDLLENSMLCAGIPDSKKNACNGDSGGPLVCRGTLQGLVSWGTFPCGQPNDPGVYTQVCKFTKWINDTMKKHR
test-details: Inhibition of C-terminal poly-His-tagged human recombinant KLK7 (30 to 253 residues) transfected in CHO cells assessed as inhibition constant using KHLY-pNA as fluorogenic substrate incubated for 30 mins by fluorescence plate reader assay
Type: cell-based
property: Ki (nM)

1 = CC(C)C[C@@H]1NC(=O)[C@H](Cc2ccc(O)cc2)NC(=O)[C@H](CC(C)C)NC(=O)[C@@H](NC(=O)[C@@H]2CCCN2)CSCc2cccc(n2)CSC[C@@H](C(=O)O)NC(=O)[C@H](C)NC1=O (mixture of isomers)
2 = CC(C)C[C@@H]1NC(=O)[C@@H](NC(=O)C(N)CCC(N)=O)CSCc2cccc(n2)CSC[C@@H](C(=O)N[C@@H](CO)C(=O)O)NC(=O)[C@H](CO)NC(=O)[C@H](CC(C)C)NC(=O)[C@H](Cc2ccc(O)cc2)NC1=O (single isomer, unassigned)
Exercise: Lab note: check whether 1 or 2 shows the higher recorded Ki. Lab note: record the label of whichever item you select.
Solution: 1
(1: 19 nM, 2: 12 nM)

---

Recorded measurements of Ki, one per entry
target-of-assay: Kallikrein-5 (Homo sapiens)
Sequence (Q9Y337 whole entry, the tested form may be a part): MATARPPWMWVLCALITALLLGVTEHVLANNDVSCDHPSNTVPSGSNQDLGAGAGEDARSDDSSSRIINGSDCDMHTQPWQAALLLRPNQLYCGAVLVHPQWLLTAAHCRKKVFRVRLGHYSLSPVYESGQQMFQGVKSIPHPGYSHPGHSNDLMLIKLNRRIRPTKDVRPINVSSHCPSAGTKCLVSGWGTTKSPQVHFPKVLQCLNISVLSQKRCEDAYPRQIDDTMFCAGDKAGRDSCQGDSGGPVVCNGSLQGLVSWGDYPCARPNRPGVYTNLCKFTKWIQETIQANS
test-details: Inhibition of C-terminal poly-His-tagged human recombinant KLK5 (30 to 293 residues) transfected in CHO cells assessed as inhibition constant using Boc-VPR-AMC as fluorogenic substrate incubated for 30 mins by fluorescence plate reader assay
Assay type: cell-based
State the answer as a number, implicitly in nM.

chemical-string	property	reported-result
CC(C)C[C@@H]1NC(=O)[C@@H](NC(=O)[C@H](CCC(N)=O)NC(=O)[C@@H]2CCCN2C(=O)[C@H](CC(N)=O)NC(=O)[C@H](C)NC(=O)[C@@H]2CSCC(=O)CSC[C@H](NC(=O)[C@H](C)N)C(=O)N[C@@H]([C@@H](C)O)C(=O)N[C@@H](CCCNC(=N)N)C(=O)N[C@@H](CCC(=O)O)C(=O)N[C@@H](Cc3ccc(O)cc3)C(=O)N[C@@H](CC(N)=O)C(=O)N3CCC[C@H]3C(=O)N[C@@H](CCC(N)=O)C(=O)N2)CSCC(=O)CSC[C@@H](C(=O)N[C@@H](Cc2cnc[nH]2)C(=O)O)NC1=O	Ki	28

Continue with the next compound.
Exercise: What value of Ki has been recorded for this entry: CSCC[C@H](N)C(=O)N[C@H]1CSCC(=O)CSC[C@@H](C(=O)N[C@H]2CSCC(=O)CSC[C@@H](C(=O)N3CCC[C@H]3C(=O)O)NC(=O)[C@H]([C@@H](C)O)NC(=O)[C@H](CCCNC(=N)N)NC(=O)[C@H](CCC(N)=O)NC(=O)[C@@H]3CCCN3C2=O)NC(=O)[C@H](CC(C)C)NC(=O)[C@H](CO)NC(=O)[C@@H]2CCCN2C(=O)[C@H](CC(=O)O)NC(=O)[C@H](Cc2c[nH]c3ccccc23)NC(=O)[C@H](CCC(N)=O)NC(=O)[C@H](CCCNC(=N)N)NC(=O)[C@H](CO)NC1=O
Solution: 24

---

test-details: Stability of the compound in human plasma assessed as half life […] by LC-MS analysis
Assay type: ADME, cell-free
Numbered stars: 1 amine (or outer) side, 2 acyl side, 3 side chain; on linkers, the order of the positions; unused ones are H or OH. Bridge positions count the residues as written; N and C are the ends. Peptide text beside a SMILES is read from it. CH2COCH2 = O=C(C[*:1])C[*:2]
property: half-life

compound	half-life
CC(C)C[C@@H]1NC(=O)[C@H](Cc2ccc(O)cc2)NC(=O)[C@H](CC(C)C)NC(=O)[C@@H](NC(=O)[C@@H]2CCCN2)CSCC(=O)CSC[C@@H](C(=O)N[C@@H](CO)C(=O)O)NC(=O)[C@H](CCCNC(=N)N)NC(=O)[C@H](C)NC1=O (H-PCLYLARCS-OH; linker 2-8 via CH2COCH2)	< 5 min

Now consider the entry below.
Exercise: Quick one: half-life of C[C@@H](O)[C@@H]1NC(=O)[C@@H](NC(=O)CN)CSCC(=O)CSC[C@@H](C(=O)O)NC(=O)[C@@H]2CCCN2C(=O)[C@H](Cc2ccc(O)cc2)NC(=O)[C@H](CCC(N)=O)NC(=O)[C@H](CCCNC(=N)N)NC1=O (H-GCTRQYPC-OH; linker 2-8 via CH2COCH2) ?
Solution: < 5 min

---

target-of-assay: Kallikrein-5 (Homo sapiens)
test-details: Inhibition of C-terminal poly-His-tagged human recombinant KLK5 (30 to 293 residues) transfected in CHO cells assessed as inhibition constant using Boc-VPR-AMC as fluorogenic substrate incubated for 30 mins by fluorescence plate reader assay
Assay type: cell-based
property: Ki (nM)
Record the value in nM, omitting the unit from your answer.

chemical-string	Ki / nM
C[C@@H](O)[C@@H]1NC(=O)[C@@H](NC(=O)CN)CSCC(=O)CSC[C@@H](C(=O)O)NC(=O)[C@@H]2CCCN2C(=O)[C@H](Cc2c[nH]c3ccccc23)NC(=O)[C@H](CCC(=O)O)NC(=O)[C@H](CCCNC(=N)N)NC1=O	5.1

Exercise: What value of Ki has been recorded for this entry: CC(C)C[C@@H]1NC(=O)[C@@H](NC(=O)[C@H](CCC(N)=O)NC(=O)[C@@H]2CCCN2C(=O)[C@H](CC(N)=O)NC(=O)[C@H](C)NC(=O)[C@@H]2CSCc3cccc(n3)CSC[C@H](NC(=O)[C@H](C)N)C(=O)N[C@@H]([C@@H](C)O)C(=O)N[C@@H](CCCNC(=N)N)C(=O)N[C@@H](CCC(=O)O)C(=O)N[C@@H](Cc3ccc(O)cc3)C(=O)N[C@@H](CC(N)=O)C(=O)N3CCC[C@H]3C(=O)N[C@@H](CCC(N)=O)C(=O)N2)CSCc2cccc(n2)CSC[C@@H](C(=O)N[C@@H](Cc2cnc[nH]2)C(=O)O)NC1=O
Solution: 6.1

Exercise: Value lookup for Ki; key = C[C@@H](O)[C@@H]1NC(=O)[C@@H](NC(=O)CN)CSCC(=O)CSC[C@@H](C(=O)O)NC(=O)[C@@H]2CCCN2C(=O)[C@H](Cc2ccc(O)cc2)NC(=O)[C@H](CCC(=O)O)NC(=O)[C@H](CCCNC(=N)N)NC1=O
Solution: 3.2

---

pKi: recorded values
target-of-assay: Kallikrein-5 (Homo sapiens)
test-details: Inhibition of C-terminal poly-His-tagged human recombinant KLK5 (30 to 293 residues) transfected in CHO cells assessed as inhibition constant using Boc-VPR-AMC as fluorogenic substrate incubated for 30 mins by fluorescence plate reader assay
Assay type: cell-based
Numbered stars: 1 amine (or outer) side, 2 acyl side, 3 side chain; on linkers, the order of the positions; unused ones are H or OH. Bridge positions count the residues as written; N and C are the ends. Peptide text beside a SMILES is read from it. CH2COCH2 = O=C(C[*:1])C[*:2]
Lab note: report pKi as minus log10 of the concentration in molar units, number only.

compound	target-of-assay	reported-result
C[C@@H](O)[C@@H]1NC(=O)[C@@H](NC(=O)CN)CSCC(=O)CSC[C@@H](C(=O)O)NC(=O)[C@@H]2CCCN2C(=O)[C@H](Cc2c[nH]c3ccccc23)NC(=O)[C@H](CCC(N)=O)NC(=O)[C@H](CCCNC(=N)N)NC1=O	Kallikrein-5 (Homo sapiens)	8.44
CCCCCCCCCCCCCCCC(=O)NCCCC[C@H](NC(=O)[C@H](CCC(=O)O)NC(=O)[C@H](Cc1ccc(O)cc1)NC(=O)[C@H](CCC(=O)O)NC(=O)COCCOCCNC(=O)c1ccc(-c2c3ccc(=O)cc-3oc3cc(O)ccc23)c(C(=O)O)c1)C(=O)N[C@@H](CCC(=O)O)C(=O)N[C@@H](Cc1ccc(O)cc1)C(=O)N[C@@H](CCC(=O)O)C(=O)NCCOCCOCC(=O)N[C@H]1CSCC(=O)CSC[C@@H](C(N)=O)NC(=O)[C@@H]2CCCN2C(=O)[C@H](Cc2ccc(O)cc2)NC(=O)[C@H](CCC(N)=O)NC(=O)[C@H](CCCNC(=N)N)NC(=O)[C@H]([C@@H](C)O)NC1=O	Kallikrein-5 (Homo sapiens)	7.64

Please examine the following record next.
Exercise: I have this compound here, C[C@@H](O)[C@@H]1NC(=O)[C@@H](NC(=O)CN)CSCC(=O)CSC[C@@H](C(=O)O)NC(=O)[C@@H]2CCCN2C(=O)[C@H](Cc2ccc(O)cc2)NC(=O)[C@H](CCC(N)=O)NC(=O)[C@H](CCCNC(=N)N)NC1=O (H-GCTRQYPC-OH; linker 2-8 via CH2COCH2) , and I need its recorded pKi.
Solution: 8.66

---

target-of-assay: Kallikrein-7 (Homo sapiens, UniProt P49862)
test-details: Inhibition of C-terminal poly-His-tagged human recombinant KLK7 (30 to 253 residues) transfected in CHO cells assessed as inhibition constant using KHLY-pNA as fluorogenic substrate incubated for 30 mins by fluorescence plate reader assay
Assay type: cell-based
Numbered stars: 1 amine (or outer) side, 2 acyl side, 3 side chain; on linkers, the order of the positions; unused ones are H or OH. Bridge positions count the residues as written; N and C are the ends. Peptide text beside a SMILES is read from it. Pyridine(2,6-diCH2) = c1cc(C[*:1])nc(C[*:2])c1; CH2COCH2 = O=C(C[*:1])C[*:2]
property: Ki (nM)
Supply the numeric figure in nM, leaving out any unit text.

Example entries and their recorded answers appear below.
molecule	units-text	Ki
CC(C)C[C@@H]1NC(=O)[C@@H](NC(=O)C(N)CCCNC(=N)N)CSCc2cccc(n2)CSC[C@@H](C(=O)N[C@@H](CO)C(=O)O)NC(=O)[C@H](CO)NC(=O)[C@H](CC(C)C)NC(=O)[C@H](Cc2ccc(O)cc2)NC1=O (single isomer, unassigned)	nM	8.8
CC(C)C[C@@H]1NC(=O)[C@H](Cc2ccc(O)cc2)NC(=O)[C@H](CC(C)C)NC(=O)[C@@H](N)CSCc2cccc(n2)CSC[C@@H](C(=O)N[C@@H](CO)C(=O)O)NC(=O)[C@H](C)NC1=O (H-CLYLACS-OH; linker 1-6 via Pyridine(2,6-diCH2))	nM	200
CSCC[C@@H]1NC(=O)[C@H](Cc2ccc(O)cc2)NC(=O)[C@H](CC(C)C)NC(=O)[C@@H](NC(=O)[C@@H]2CCCN2)CSCC(=O)CSC[C@@H](C(=O)N[C@@H](CO)C(=O)O)NC(=O)[C@H](CCCNC(=N)N)NC(=O)[C@H](C)NC1=O (H-PCLYMARCS-OH; linker 2-8 via CH2COCH2)	nM	10.1

Lab note: next molecule to report on.
Exercise: What value of Ki has been reported for the following molecule? CC(C)C[C@@H]1NC(=O)[C@@H](NC(=O)[C@@H]2CCCN2)CSCc2cccc(n2)CSC[C@@H](C(=O)N[C@@H](CO)C(=O)O)NC(=O)[C@H]([C@@H](C)O)NC(=O)[C@H](CC(C)C)NC(=O)[C@H](Cc2ccc(O)cc2)NC1=O (H-PCLYLTCS-OH; linker 2-7 via Pyridine(2,6-diCH2))
Solution: 52

This collection of values is drawn from ChEMBL document CHEMBL5137037.
